Origin of the recorded values: ChEMBL document CHEMBL4340543

The next entries give measured log10(IC50) for Protease (Human immunodeficiency virus 1).
Heads up, the numbers here are log10 of IC50 in nM units.

Asked: Give a short answer stating reported log10(IC50) for `COc1ccc(S(=O)(=O)N(CC(C)C)C[C@@H](O)[C@H](Cc2ccccc2)NC(=O)Cn2cnc3c(OC)nc(N)nc32)cc1` .
Given back: 2.66

Asked: Give a short answer stating reported log10(IC50) for `CC(C)CN(C[C@@H](O)[C@H](Cc1ccccc1)NC(=O)Cn1cnc2c(N)ncnc21)S(=O)(=O)c1ccc(N)cc1` .
Given back: 3.09

Asked: Give a short answer stating reported log10(IC50) for `CC(C)CN(C[C@@H](O)[C@H](Cc1ccccc1)NC(=O)Cn1cnc2c(O)ncnc21)S(=O)(=O)c1ccc(N)cc1` .
Given back: 3.26

Asked: Give a short answer stating reported log10(IC50) for `CC(C)CN(C[C@@H](O)[C@H](Cc1ccccc1)NC(=O)Cn1cnc2c(O)ncnc21)S(=O)(=O)c1ccc([N+](=O)[O-])cc1` .
Given back: 3.39

Asked: Give a short answer stating reported log10(IC50) for `COc1ccc(S(=O)(=O)N(CC(C)C)C[C@@H](O)[C@H](Cc2ccccc2)NC(=O)Cn2cnc3c(O)ncnc32)cc1` .
Given back: 1.83

Asked: Give a short answer stating reported log10(IC50) for `CC(C)CN(C[C@@H](O)[C@H](Cc1ccccc1)NC(=O)Cn1cnc2c(O)nc(N)nc21)S(=O)(=O)c1ccc(N)cc1` .
Given back: 3.67
